Where do these numbers come from? They come from patent US20240293400A1.

Measured IC50 (FLT3 (Homo sapiens (Human)))
Give just the numeric value; nM need not be written.

Known results for compounds:
Prompt line: Entry "CN1CCN(Cc2cccc(-c3cnc4[nH]cc(-c5cc(CNCCc6ccc(O)cc6)ccc5F)c4c3)c2)CC1" has what IC50?
Response line: 2.5

Prompt line: Request: "CN1CCN(Cc2cccc(-c3cnc4[nH]cc(-c5cc(CNCc6ccccc6)ccc5F)c4c3)c2)CC1"
Response line: 2.33

Now take the following compound into account.
Prompt line: Given "CN1CCN(Cc2cccc(-c3cnc4[nH]cc(-c5cc(NC(=O)Nc6ccccc6)ccc5F)c4c3)c2)CC1" , state its recorded IC50.
Response line: 48.2
